test system: HeLa Kyoto; test: solubility in G1/S (NP-40 vs SDS abundance) (log2 ratio); higher = more soluble; details: cell cycle stage: G1/S;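 also: HeLa Kyoto cells arrested at G1/S by double thymidine block, proteins quantified by TMT10plex mass spectrometry in mild NP-40 versus SDS extracts, three biological replicates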
recorded-metric: solubility in G1/S (log2)
Answers are plain numbers.

Field: example entries. Status: answers known.
{"columns": ["sequence-text", "solubility in G1/S (log2)"],
 "data": [
  ["MASNFKKANMASSSQRKRMSPKPELTEEQKQEIREAFDLFDADGTGTIDVKELKVAMRALGFEPKKEEIKKMISEIDKEGTGKMNFGDFLTVMTQKMSEKDTKEEILKAFKLFDDDETGKISFKNLKRVAKELGENLTDEELQEMIDEADRDGDGEVSEQEFLRIMKKTSLY [CETN2]", 0.117],
  ["MAPWGKRLAGVRGVLLDISGVLYDSGAGGGTAIAGSVEAVARLKRSRLKVRFCTNESQKSRAELVGQLQRLGFDISEQEVTAPAPAACQILKEQGLRPYLLIHDGVRSEFDQIDTSNPNCVVIADAGESFSYQNMNNAFQVLMELEKPVLISLGKGRYYKETSGLMLDVGPYMKALEYACGIKAEVVGKPSPEFFKSALQAIGVEAHQAVMIGDDIVGDVGGAQRCGMRALQVRTGKFRPSDEHHPEVKADGYVDNLAEAVDLLLQHADK [LHPP]", 0.392],
  ["MEKSWMLWNFVERWLIALASWSWALCRISLLPLIVTFHLYGGIILLLLIFISIAGILYKFQDVLLYFPEQPSSSRLYVPMPTGIPHENIFIRTKDGIRLNLILIRYTGDNSPYSPTIIYFHGNAGNIGHRLPNALLMLVNLKVNLLLVDYRGYGKSEGEASEEGLYLDSEAVLDYVMTRPDLDKTKIFLFGRSLGGAVAIHLASENSHRISAIMVENTFLSIPHMASTLFSFFPMRYLPLWCYKNKFLSYRKISQCRMPSLFISGLSDQLIPPVMMKQLYELSPSRTKRLAIFPDGTHNDTWQCQGYFTALEQFIKEVVKSHSPEEMAKTSSNVTII [ABHD13]", -0.091]
]}

Could you report solubility in G1/S (log2) for every entry in the following list?
1. MAGGRCGPQLTALLAAWIAAVAATAGPEEAALPPEQSRVQPMTASNWTLVMEGEWMLKFYAPWCPSCQQTDSEWEAFAKNGEILQISVGKVDVIQEPGLSGRFFVTTLPAFFHAKDGIFRRYRGPGIFEDLQNYILEKKWQSVEPLTGWKSPASLTMSGMAGLFSISGKIWHLHNYFTVTLGIPAWCSYVFFVIATLVFGLFMGLVLVVISECFYVPLPRHLSERSEQNRRSEEAHRAEQLQDAEEEKDDSNEEENKDSLVDDEEEKEDLGDEDEAEEEEEEDNLAAGVDEERSEANDQGPPGEDGVTREEVEPEEAEEGISEQPCPADTEVVEDSLRQRKSQHADKGL [TMX4]
2. MAPALLLIPAALASFILAFGTGVEFVRFTSLRPLLGGIPESGGPDARQGWLAALQDRSILAPLAWDLGLLLLFVGQHSLMAAERVKAWTSRYFGVLQRSLYVACTALALQLVMRYWEPIPKGPVLWEARAEPWATWVPLLCFVLHVISWLLIFSILLVFDYAELMGLKQVYYHVLGLGEPLALKSPRALRLFSHLRHPVCVELLTVLWVVPTLGTDRLLLAFLLTLYLGLAHGLDQQDLRYLRAQLQRKLHLLSRPQDGEAE [NRM]

Data returned:
[0.144, -0.275]

// data source = the supplement of paper PMC5998384
